Tested on: 874868-142-R-J2-PDC complex spheroids, growth % test/control
ASSAY_METHOD_TEXT: Anticancer human tumor 874868-142-R-J2-PDC patient-derived head and neck squamous carcinoma cell line growth inhibition [CLK]
RUN_CONDITIONS: second compound 0.316 µM; first compound 0.1 µM; hits give low values
METRIC: viability, T/C

Solved entries (count: 5):
Cn1ncnc1[C@H]1c2n[nH]c(=O)c3cc(F)cc(c23)N[C@@H]1c1ccc(F)cc1 + CNC(=O)c1ccc(Nc2nc(OC3CCCC3)c3c(-c4ccc5nc(C)oc5c4)c[nH]c3n2)c(OC)c1 = 46.3%
C=C(F)C(=O)N1CCN(c2nc(OCC3CCCN3C)nc3c2CCN(c2cccc4cccc(Cl)c24)C3)CC1CC#N (configuration not stated) + CN1CCN(c2cc(C(=O)Nc3cc4cc(-c5cnn(C)c5)ccc4cn3)ccn2)CC1 = 17.8%
CC1(C)CCC(CN2CCN(c3ccc(C(=O)NS(=O)(=O)c4ccc(NCC5CCOCC5)c([N+](=O)[O-])c4)c(Oc4cnc5[nH]ccc5c4)c3)CC2)=C(c2ccc(Cl)cc2)C1 + CN1CCN(c2cc(C(=O)Nc3cc4cc(-c5cnn(C)c5)ccc4cn3)ccn2)CC1 = 17.6%
CC(=O)O[C@H]1C(=O)[C@@]2(C)[C@H]([C@H](OC(=O)c3ccccc3)[C@]3(O)C[C@H](OC(=O)[C@H](O)[C@@H](NC(=O)c4ccccc4)c4ccccc4)C(C)=C1C3(C)C)[C@]1(OC(C)=O)CO[C@@H]1C[C@@H]2O + CNC(=O)c1ccc(Nc2nc(OC3CCCC3)c3c(-c4ccc5nc(C)oc5c4)c[nH]c3n2)c(OC)c1 = 65.1%
CC1COCCN1c1cc(C2(S(C)(=N)=O)CC2)nc(-c2ccnc3[nH]ccc23)n1 (configuration not stated) + CNC(=O)c1ccc(Nc2nc(OC3CCCC3)c3c(-c4ccc5nc(C)oc5c4)c[nH]c3n2)c(OC)c1 = 53.8%

Enquiry: Look up viability, T/C for this molecule: CC(Nc1ccc2c(c1)OCCn1cc(N3C(=O)OCC3C(F)F)nc1-2)C(N)=O (configuration not stated) + CN1CCN(c2cc(C(=O)Nc3cc4cc(-c5cnn(C)c5)ccc4cn3)ccn2)CC1
Return: 15.2%

Enquiry: Look up viability, T/C for this molecule: CCCS(=O)(=O)Nc1ccc(F)c(C(=O)c2c[nH]c3ncc(-c4ccc(Cl)cc4)cc23)c1F + CN1CCN(c2cc(C(=O)Nc3cc4cc(-c5cnn(C)c5)ccc4cn3)ccn2)CC1
Return: 18.1%

====

Tested on: 874868-142-R-J2-PDC complex spheroids, growth % test/control
ASSAY_METHOD_TEXT: Anticancer human tumor 874868-142-R-J2-PDC cell line growth inhibition [CLK];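 note: spheroids exposed to the compounds for 7 days; 100% = DMSO vehicle control viability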
RUN_CONDITIONS: second compound 1 µM; first compound 0.316 µM; hits give low values
Note to self: viability, T/C under 8% means met, ties and anything higher get not met.

Some solved entries appear below for comparison.
CC(=O)O[C@H]1C(=O)[C@@]2(C)[C@H]([C@H](OC(=O)c3ccccc3)[C@]3(O)C[C@H](OC(=O)[C@H](O)[C@@H](NC(=O)c4ccccc4)c4ccccc4)C(C)=C1C3(C)C)[C@]1(OC(C)=O)CO[C@@H]1C[C@@H]2O + CN1CCN(c2cc(C(=O)Nc3cc4cc(-c5cnn(C)c5)ccc4cn3)ccn2)CC1 = met
C=CC(=O)N1CCN(c2nc(=O)n(-c3c(C)ccnc3C(C)C)c3nc(-c4c(O)cccc4F)c(F)cc23)C(C)C1 (centres undefined) + CNC(=O)c1ccc(Nc2nc(OC3CCCC3)c3c(-c4ccc5nc(C)oc5c4)c[nH]c3n2)c(OC)c1 = not met
C#Cc1c(F)ccc2cc(O)cc(-c3ncc4c(N5CC6CCC(C5)N6)nc(OCC56CCCN5CC(F)C6)nc4c3F)c12 (centres undefined) + CNC(=O)c1ccc(Nc2nc(OC3CCCC3)c3c(-c4ccc5nc(C)oc5c4)c[nH]c3n2)c(OC)c1 = not met

Enquiry: Is 8% strictly greater than the compound's reported viability, T/C? compound: COc1cccc2c1C(=O)c1c(O)c3c(c(O)c1C2=O)CC(O)(C(=O)CO)CC3OC1CC(N)C(O)C(C)O1 (centres undefined) + CNC(=O)c1ccc(Nc2nc(OC3CCCC3)c3c(-c4ccc5nc(C)oc5c4)c[nH]c3n2)c(OC)c1
Return: not met

Enquiry: Is 8% strictly greater than the compound's reported viability, T/C? compound: CC1COCCN1c1cc(C2(S(C)(=N)=O)CC2)nc(-c2ccnc3[nH]ccc23)n1 (centres undefined) + CNC(=O)c1ccc(Nc2nc(OC3CCCC3)c3c(-c4ccc5nc(C)oc5c4)c[nH]c3n2)c(OC)c1
Return: not met

Enquiry: Is 8% strictly greater than the compound's reported viability, T/C? compound: Nc1ccccc1NC(=O)c1ccc(CNC(=O)OCc2cccnc2)cc1 + CN1CCN(c2cc(C(=O)Nc3cc4cc(-c5cnn(C)c5)ccc4cn3)ccn2)CC1
Return: met

Enquiry: Is 8% strictly greater than the compound's reported viability, T/C? compound: C=CC(=O)N1CCN(c2nc(=O)n(-c3c(C)ccnc3C(C)C)c3nc(-c4c(O)cccc4F)c(F)cc23)C(C)C1 (centres undefined) + CN1CCN(c2cc(C(=O)Nc3cc4cc(-c5cnn(C)c5)ccc4cn3)ccn2)CC1
Return: met

Enquiry: Is 8% strictly greater than the compound's reported viability, T/C? compound: COc1c(OCCCN2CCOCC2)ccc2c3n(c(=NC(=O)c4cnc(N)nc4)nc12)CCN3 + CN1CCN(c2cc(C(=O)Nc3cc4cc(-c5cnn(C)c5)ccc4cn3)ccn2)CC1
Return: met

Enquiry: Is 8% strictly greater than the compound's reported viability, T/C? compound: CC(=O)O[C@H]1C(=O)[C@@]2(C)[C@H]([C@H](OC(=O)c3ccccc3)[C@]3(O)C[C@H](OC(=O)[C@H](O)[C@@H](NC(=O)c4ccccc4)c4ccccc4)C(C)=C1C3(C)C)[C@]1(OC(C)=O)CO[C@@H]1C[C@@H]2O + CNC(=O)c1ccc(Nc2nc(OC3CCCC3)c3c(-c4ccc5nc(C)oc5c4)c[nH]c3n2)c(OC)c1
Return: not met
